- Target desc: UniProt:Q96EB6
- Assay info: TAMRA based mass spectrometry assay of SIRT1 activity
- Type: biochemical
- Experimental context: TAMRA assay; percent maximum fold activation; read-out: TAMRA % Fold Act
I'd be grateful if you could share measured Emax for these entries.

Field: Emax. Fill in for each record below.
1. O=C(Nc1ccc(F)cn1)c1cnc2ccc(-c3ccccc3OC(F)(F)F)nn12 [Compound 360]
2. O=C(Nc1cnn2ccc(-c3ccccc3C(F)(F)F)nc12)c1ncccn1 [Compound 252]
3. Cc1nc(C(=O)Nc2cnc3ccc(-c4ccccc4Cl)nn23)c(C)s1 [Compound 293]
4. COc1ccc(NC(=O)c2c(C)nc3ccc(-c4ccccc4C(F)(F)F)nn23)nn1 [Compound 665]
5. CCNc1cccc(NC(=O)c2cnc3ccc(-c4ccccc4F)nn23)n1 [Compound 327]

output:
["< 350%", "≥ 350%", "≥ 350%", "≥ 350%", "≥ 350%"]

Field: Emax. Fill in for each record below.
1. O=C(Nc1cnc2ccc(-c3ccccc3OC(F)(F)F)nn12)c1nccs1 [Compound 319]
2. Cc1cnc(C(=O)Nc2cnc3ccc(-c4ccccc4F)nn23)s1 [Compound 304]

output:
1: ≥ 350%; 2: < 350%

Field: Emax. Fill in for each record below.
1. Cc1cncc(NC(=O)c2c(C)nn3ccc(-c4ccccc4Br)nc23)c1 [Compound 827]
2. Cc1cccc(C(=O)Nc2cnn3ccc(-c4ccccc4OC(F)(F)F)nc23)n1 [Compound 725]

output:
≥ 350%
≥ 350%

###

- Target desc: SIRT1 (Homo sapiens, UniProt Q96EB6)
- Sequence (Q96EB6 whole entry): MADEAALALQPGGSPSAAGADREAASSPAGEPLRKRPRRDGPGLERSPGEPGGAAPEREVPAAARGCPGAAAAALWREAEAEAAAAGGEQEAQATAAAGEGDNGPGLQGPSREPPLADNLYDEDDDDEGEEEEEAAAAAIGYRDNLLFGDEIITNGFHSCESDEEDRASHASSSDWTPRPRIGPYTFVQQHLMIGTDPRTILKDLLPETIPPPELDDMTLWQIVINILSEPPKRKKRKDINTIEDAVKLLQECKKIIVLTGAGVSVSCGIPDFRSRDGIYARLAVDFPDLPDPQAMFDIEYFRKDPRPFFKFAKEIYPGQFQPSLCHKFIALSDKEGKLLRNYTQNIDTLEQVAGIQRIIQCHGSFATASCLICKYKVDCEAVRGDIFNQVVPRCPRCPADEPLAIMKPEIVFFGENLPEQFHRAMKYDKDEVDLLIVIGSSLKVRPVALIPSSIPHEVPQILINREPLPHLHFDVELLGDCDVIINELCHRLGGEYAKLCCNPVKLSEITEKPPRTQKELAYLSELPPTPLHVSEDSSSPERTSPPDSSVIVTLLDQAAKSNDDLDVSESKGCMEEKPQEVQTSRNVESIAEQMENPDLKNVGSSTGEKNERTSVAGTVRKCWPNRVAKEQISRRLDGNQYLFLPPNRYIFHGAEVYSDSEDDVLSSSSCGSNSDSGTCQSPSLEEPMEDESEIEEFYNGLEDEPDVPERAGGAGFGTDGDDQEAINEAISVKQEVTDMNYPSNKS
- Assay info: Trp mass spectrometry assay of SIRT1 activity
- Format: biochemical
- Experimental context: Trp assay; concentration giving 150% activation of SIRT1
Endpoint label: Trp EC1.5 (μM)

[
  {
    "Compound": "Cc1nc2ccc(N3CC[C@H](F)C3)nn2c1C(=O)Nc1cccnn1 [Compound 857]",
    "Trp EC1.5 (μM)": "A (EC1.5<1 μM)"
  },
  {
    "Compound": "Cc1cnc(C(=O)Nc2cnn3ccc(-c4ccccc4OC(F)(F)F)nc23)cn1 [Compound 734]",
    "Trp EC1.5 (μM)": "C (EC1.5>25 μM)"
  },
  {
    "Compound": "Cc1cnc(NC(=O)c2cnn3ccc(-c4ccccc4OC(F)(F)F)nc23)s1 [Compound 603]",
    "Trp EC1.5 (μM)": "B (EC1.5 1-25 μM)"
  },
  {
    "Compound": "Cc1nc2ccc(N3CC[C@H](F)C3)nn2c1C(=O)Nc1ncccn1 [Compound 852]",
    "Trp EC1.5 (μM)": "B (EC1.5 1-25 μM)"
  },
  {
    "Compound": "O=C(Nc1cccnc1)c1cnc2ccc(-c3cccc(OC[C@H](O)CO)c3)nn12 [Compound 858]",
    "Trp EC1.5 (μM)": "B (EC1.5 1-25 μM)"
  }
]

Field: Trp EC1.5 (μM). Fill in for each record below.
1. O=C(Nc1cccnn1)c1cnc2ccc(N3CC(F)(F)C3)nn12 [Compound 916]
2. O=C(Nc1cccnn1)c1cnc2ccc(N3CC[C@H](F)C3)nn12 [Compound 856]
3. Cc1cc(C)c(NC(=O)c2c(C)nn3ccc(-c4ccccc4Br)nc23)cn1 [Compound 826]
4. Cc1ccncc1NC(=O)c1cnn2ccc(-c3ccccc3OC(F)(F)F)nc12 [Compound 610]

output:
C (EC1.5>25 μM)
B (EC1.5 1-25 μM)
A (EC1.5<1 μM)
A (EC1.5<1 μM)

Field: Trp EC1.5 (μM). Fill in for each record below.
1. COc1ccnc(NC(=O)c2c(C)nc3ccc(-c4ccccc4C(F)(F)F)nn23)c1 [Compound 671]
2. O=C(Nc1cccc(CN2CCOCC2)n1)c1cnn2ccc(-c3ccccc3C(F)(F)F)nc12 [Compound 269]
3. O=C(Nc1cccnc1)c1cnn2ccc(N3CCCCC3C(F)(F)F)nc12 (centres unmarked) [Compound 945]
4. Cc1nc2ccc(-c3cccc(OC[C@H](O)CO)c3)nn2c1C(=O)Nc1ccccn1 [Compound 772]
5. O=C(Nc1cccnc1)c1cnc2ccc(N3CCCC(C(F)(F)F)C3)nn12 (centres unmarked) [Compound 932]
6. Cc1nccc(C(=O)Nc2cnn3ccc(-c4ccccc4C(F)(F)F)nc23)n1 [Compound 794]
7. COc1ccc(NC(=O)c2c(C)nc3ccc(-c4cccc(OC(F)(F)F)c4)nn23)nn1 [Compound 718]
8. O=C(Nc1cnc2ccc(-c3ccccc3C(F)(F)F)nn12)c1cncc(OC[C@@H](O)CO)n1 [Compound 645]

output:
1: A (EC1.5<1 μM); 2: B (EC1.5 1-25 μM); 3: A (EC1.5<1 μM); 4: B (EC1.5 1-25 μM); 5: A (EC1.5<1 μM); 6: B (EC1.5 1-25 μM); 7: C (EC1.5>25 μM); 8: A (EC1.5<1 μM)
